Source: ChEMBL document CHEMBL3414567

System: C6
ASSAY_INFO: Cytotoxicity against rat C6 cells assessed as reduction of cell viability at 50 uM after 24 hrs by MTT assay
Format: functional, cell-based
The source made the active and inactive calls. The rule behind the calls is not given here.
Pick one: active, inactive

Please review the entries below; each comes with its answer.
INSERT INTO measurements (compound, discrete_label) VALUES
  ('CCCCCCCCCCCCCCCCCCOC(=O)C1=C(C)NC(=S)NC1c1cccc(O)c1 (stereo not given)', 'inactive'),
  ('CCCCCCCCCCCCCCCCOC(=O)C1=C(C)NC(=O)NC1c1cccc(O)c1 (stereo not given)', 'active'),
  ('CCCCCCCC/C=C\CCCCCCCCOC(=O)C1=C(C)NC(=S)NC1c1cccc(O)c1 (stereo not given)', 'active'),
  ('CCCCCCCC/C=C\CCCCCCCCOC(=O)C1=C(C)NC(=O)NC1c1cccc(O)c1 (stereo not given)', 'active');

--- query ---
**Q:** Recorded call for CCCCCCCCCCCCCCCCOC(=O)C1=C(C)NC(=S)NC1c1cccc(O)c1 (stereo not given) ?
**A:** active
